Sourced from patent US9839643B2

Please provide measured TGI (total growth inhibition) for the entries that follow.
# Tested on: HCT15
# Type: cell-based
# ASSAY CONTEXT: 48 hour incubation, unit not given (tested from 100 μM)
I only need the number, thanks.

input: Could you tell me which TGI (total growth inhibition) is on file for O=C1[O][Pt]2([NH][C@@H]3CCCC[C@H]3[NH]2)[O]C1=O [Oxaliplatin, oxaliplatin] ?
output: 17.2

input: Requested read-out: TGI (total growth inhibition). Entry: N.N.[Cl][Pt][Cl] [Cisplatin, cisplatin]
output: 85.9

input: What value of TGI (total growth inhibition) has been recorded for this entry: CCC1(CC)C(=O)NC(=O)[N]([Pd-2]23[n+]4ccccc4C[NH+]2Cc2cccc[n+]23)C1=O.O.[Cl-] [[Pd(bpma)(barb)]Cl•H2O, [Pd(bpma)(barb)]Cl·H2O]
output: 9.9

----------
For each record, write down the corresponding GI50.
Kindly answer with a numeric value in µM, unit omitted.

input: H460 / GI50 / N.N.[Cl][Pt][Cl] [Cisplatin, cisplatin] : value?
output: 8.9

input: # returns recorded GI50 (system: H460) for CCC1(CC)C(=O)NC(=O)[N]([Pd-2]23[n+]4ccccc4C[NH+]2Cc2cccc[n+]23)C1=O.O.[Cl-] [[Pd(bpma)(barb)]Cl•H2O, [Pd(bpma)(barb)]Cl·H2O]
output: 44.4

input: Please provide the recorded GI50 for O=C1[O][Pt]2([NH][C@@H]3CCCC[C@H]3[NH]2)[O]C1=O [Oxaliplatin, oxaliplatin] , tested on H460.
output: 6.8

----------
Hi there, I'd appreciate the recorded CC50 for every entry that follows.
# Tested on: HT29
# Type: cell-based
# ASSAY CONTEXT: 48 hour incubation, unit not given (tested from 100 μM), read-out: LC50 (dose killing 50% of initially seeded cells)

input: Item under review: N.N.O=C([O-])C1(C(=O)[O-])CCC1.[Pt+2] . Reported CC50?
output: > 100 µM

input: Item under review: CCC1(CC)C(=O)NC(=O)[N]([Pd-2]23[n+]4ccccc4C[NH+]2Cc2cccc[n+]23)C1=O.O.[Cl-] [[Pd(bpma)(barb)]Cl•H2O, [Pd(bpma)(barb)]Cl·H2O] . Reported CC50?
output: 22 µM

----------
# Test system: NCI-ADRRES
# Assay type: cell-based
# ASSAY CONTEXT: 48 hour incubation, unit not given (tested from 100 μM), read-out: LC50 (dose killing 50% of initially seeded cells)
ATTRIBUTE MEASURED: CC50

input: What measured CC50 goes with CCC1(CC)C(=O)NC(=O)[N]([Pd-2]23[n+]4ccccc4C[NH+]2Cc2cccc[n+]23)C1=O.O.[Cl-] [[Pd(bpma)(barb)]Cl•H2O, [Pd(bpma)(barb)]Cl·H2O] ?
output: > 100 µM

input: Return reported CC50; argument: N.N.O=C([O-])C1(C(=O)[O-])CCC1.[Pt+2] [Carboplatin, carboplatin]
output: > 100 µM

----------
# System: H460
# Assay type: cell-based
# ASSAY CONTEXT: 48 hour incubation, unit not given (tested from 100 μM), read-out: LC50 (dose killing 50% of initially seeded cells)
ATTRIBUTE MEASURED: CC50

input: Which CC50 value is on record for CCC1(CC)C(=O)NC(=O)[N]([Pd-2]23[n+]4ccccc4C[NH+]2Cc2cccc[n+]23)C1=O.O.[Cl-] [[Pd(bpma)(barb)]Cl•H2O, [Pd(bpma)(barb)]Cl·H2O] ?
output: > 100 µM

input: Looking for the measured CC50 of N.N.O=C([O-])C1(C(=O)[O-])CCC1.[Pt+2] , can you help?
output: > 100 µM

----------
Please go through the items and note down their GI50.
The response must be a number in µM with no trailing unit.

input: Please provide the recorded GI50 for N.N.[Cl][Pt][Cl] [Cisplatin, cisplatin] , tested on OVCAR3.
output: 34.3

input: What reported GI50 corresponds to CCC1(CC)C(=O)NC(=O)[N]([Pd-2]23[n+]4ccccc4C[NH+]2Cc2cccc[n+]23)C1=O.O.[Cl-] [[Pd(bpma)(barb)]Cl•H2O, [Pd(bpma)(barb)]Cl·H2O] on OVCAR3?
output: 6.5

input: Give the reported GI50 for O=C1[O][Pt]2([NH][C@@H]3CCCC[C@H]3[NH]2)[O]C1=O (system: OVCAR3).
output: 9.1

----------
# Test system: HCT15
# Format: cell-based
# ASSAY CONTEXT: 48 hour incubation, unit not given (tested from 100 μM), read-out: LC50 (dose killing 50% of initially seeded cells)
ATTRIBUTE MEASURED: CC50 (µM)
Your answer is read as µM, so omit the unit and give the number.

input: Recorded CC50 of CCC1(CC)C(=O)NC(=O)[N]([Pd-2]23[n+]4ccccc4C[NH+]2Cc2cccc[n+]23)C1=O.O.[Cl-] [[Pd(bpma)(barb)]Cl•H2O, [Pd(bpma)(barb)]Cl·H2O] , please.
output: 89.1

----------
Assign TGI (total growth inhibition) to each entry below.
# Test system: A549
# Assay type: cell-based
# ASSAY CONTEXT: 48 hour incubation, unit not given (tested from 100 μM)
Give the figure by itself; no unit, no explanation.

input: Param readout= TGI (total growth inhibition); system= A549; entry= N.N.[Cl][Pt][Cl] [Cisplatin, cisplatin] ; returns value.
output: 55.1

input: Lookup: TGI (total growth inhibition) / A549 / O=C1[O][Pt]2([NH][C@@H]3CCCC[C@H]3[NH]2)[O]C1=O
output: 58.2

input: Quick check: TGI (total growth inhibition) on A549, item CCC1(CC)C(=O)NC(=O)[N]([Pd-2]23[n+]4ccccc4C[NH+]2Cc2cccc[n+]23)C1=O.O.[Cl-] [[Pd(bpma)(barb)]Cl•H2O, [Pd(bpma)(barb)]Cl·H2O] ?
output: 80.1

----------
# Test system: OVCAR3
# Type: cell-based
# ASSAY CONTEXT: 48 hour incubation, unit not given (tested from 100 μM)
What TGI (total growth inhibition) was measured for each of the following?

input: Query TGI (total growth inhibition) on OVCAR3 for N.N.[Cl][Pt][Cl] [Cisplatin, cisplatin]
output: >100

input: So what TGI (total growth inhibition) did N.N.O=C([O-])C1(C(=O)[O-])CCC1.[Pt+2] get with OVCAR3?
output: >100

input: Item: CCC1(CC)C(=O)NC(=O)[N]([Pd-2]23[n+]4ccccc4C[NH+]2Cc2cccc[n+]23)C1=O.O.[Cl-] [[Pd(bpma)(barb)]Cl•H2O, [Pd(bpma)(barb)]Cl·H2O] Test system: OVCAR3 Read-out: TGI (total growth inhibition) Value: ?
output: 25.2

input: Recall the recorded TGI (total growth inhibition) for O=C1[O][Pt]2([NH][C@@H]3CCCC[C@H]3[NH]2)[O]C1=O with OVCAR3 and state it.
output: >100

----------
# System: OVCAR5
# Assay type: cell-based
# ASSAY CONTEXT: 48 hour incubation, unit not given (tested from 100 μM), read-out: LC50 (dose killing 50% of initially seeded cells)
ATTRIBUTE MEASURED: CC50 (µM)
Reply with just the number (in µM).

input: Entry under review: CCC1(CC)C(=O)NC(=O)[N]([Pd-2]23[n+]4ccccc4C[NH+]2Cc2cccc[n+]23)C1=O.O.[Cl-] [[Pd(bpma)(barb)]Cl•H2O, [Pd(bpma)(barb)]Cl·H2O] . Reported CC50?
output: 87
